Tested on: HL-60
details: 72 h
assayMetric: IC50 (cell viability)

Solved cases (4 shown):
CCCCC/C=C\C/C=C\C/C=C\C/C=C\CCCC(=O)C(F)(F)F : > 10 µM
COc1cc(C2Oc3cc(C4Oc5cc(O)cc(O)c5C(=O)C4O)ccc3OC2CO)ccc1O (stereo not given) : > 10 µM
C=C1C(=O)O[C@H](CCCCCCCC)[C@H]1C(=O)O : > 10 µM
NCc1ccc(S(N)(=O)=O)cc1 [4-Homosulfanilamide] : > 10 µM

// query What IC50 (cell viability) value was documented for this compound, NS(=O)(=O)c1ccc(S(=O)(=O)Nc2cccc3c(Cl)c[nH]c23)cc1 ?
// result 7.32 µM

---

Test system: NOMO-1
protocolNotes: cell viability (% survival relative to DMSO control, bortezomib = 0%); higher = less cytotoxic
details: 1 nM; 72 h
Catalogue of molecules with associated cell viability
# value in %; strip the unit string

CN(C)CCNC(=O)c1cccn2c(=O)c3cc4ccccc4cc3nc12 : 106

// query What cell viability value was documented for this molecule, OCC(CO)N[C@H]1C[C@](O)(CO)[C@@H](O)[C@H](O)[C@H]1O ?
// result 103

// query What cell viability value was documented for this molecule, O=C(Oc1cccc(F)c1OC(=O)c1cccc(O)c1)c1cccc(O)c1 ?
// result 95.5

// query What cell viability value was documented for this molecule, NCc1ccc(S(N)(=O)=O)cc1 [4-Homosulfanilamide] ?
// result 97

// query What cell viability value was documented for this molecule, O=NN(CCCl)C(=O)NCCCl ?
// result 102

// query What cell viability value was documented for this molecule, CCCC(CCC)C(=O)O ?
// result 93.8

---

Tested on: HL-60
protocolNotes: cell viability (% survival relative to DMSO control); higher = less cytotoxic
details: 0.001 µM; 72 h; co-treatment: DMSO vehicle
Catalogue of compounds with associated cell viability
# value in %; strip the unit string

O[C@H]1[C@H](O)[C@@H](O)CN2CC[C@H](O)[C@H]12 : 98

// query What cell viability value was documented for this compound, O=C(CCl)N(CCCNC(=O)C(F)(F)F)c1ccc([N+](=O)[O-])cc1 ?
// result 104

// query What cell viability value was documented for this compound, COc1cc(C2Oc3cc(C4Oc5cc(O)cc(O)c5C(=O)C4O)ccc3OC2CO)ccc1O (centres undefined) ?
// result 100

// query What cell viability value was documented for this compound, CC(C)c1ccc2c(c1)c(SC(C)(C)C)c(CC(C)(C)C(=O)O)n2Cc1ccc(Cl)cc1 ?
// result 103

---

System: LAMA-84
protocolNotes: cell viability (% survival relative to DMSO control, bortezomib = 0%); higher = less cytotoxic
details: 1 nM; 72 h
Catalogue of molecules with associated cell viability

Solved cases (5 shown):
Cc1nc(-c2ccc(OCC(C)C)c(C#N)c2)sc1C(=O)O : 102%
CN(C)C(=O)n1nnnc1Cc1ccc(-c2ccccc2)cc1 : 83%
Nc1nc(O)c2c(CCc3ccc(C(=O)N[C@@H](CCC(=O)O)C(=O)O)cc3)c[nH]c2n1 : 99%
CC(C)(F)C[C@H](N[C@@H](c1ccc(-c2ccc(S(C)(=O)=O)cc2)cc1)C(F)(F)F)C(=O)NC1(C#N)CC1 : 104%
CNC(=C[N+](=O)[O-])NCCSCc1ccc(CN(C)C)o1 : 107%

Here is another molecule to look at.
// query What cell viability value was documented for this molecule, O=c1oc2c(cc1O)oc(=O)c1cc(O)c(O)c(O)c12 ?
// result 93.7%

---

Catalogue of compounds with associated cell viability
Test system: myeloid leukemia patient primary cells Pat.12
protocolNotes: cell viability (% survival relative to DMSO control); higher = less cytotoxic
details: 100 nM; 72 h

Cc1nnc(-c2ccc(N3CCC(Oc4ccccc4C(F)(F)F)CC3)nn2)s1 [MF-438] : > 100%

// query What cell viability value was documented for this compound, Fc1ccc(CNc2ncnc3ccc(F)cc23)cc1 [Spautin 1] ?
// result > 100%

// query What cell viability value was documented for this compound, C=C1NC(=O)c2cc(CN(C)c3ccc(C(=O)N[C@@H](CCC(=O)O)C(=O)O)s3)ccc2N1 [Raltitrexed] ?
// result > 100%

---

System: HL-60
protocolNotes: cell viability (% survival relative to DMSO control, bortezomib = 0%); higher = less cytotoxic
details: 1000 nM; 72 h
Catalogue of compounds with associated cell viability
Form entry: enter the amount, then its unit.

Solved cases (2 shown):
c1ccc2nc(-c3nnc4sc(-c5cnccn5)nn34)ccc2c1 : 67.9%
NC(CCC(=O)NC(CSCc1ccc(Br)cc1)C(=O)NCC(=O)OC1CCCC1)C(=O)OC1CCCC1 (stereo not drawn) : 90%

Here is another compound to look at.
// query What cell viability value was documented for this compound, C[C@H]1O[C@H](O[C@H]2[C@H](O)[C@@H](O)[C@@H](O[C@H]3[C@H](O)[C@@H](O)C(O)O[C@@H]3CO)O[C@@H]2CO)[C@H](O)[C@@H](O)[C@@H]1N[C@H]1C=C(CO)[C@@H](O)[C@H](O)[C@H]1O (mixture of isomers) ?
// result 99.1%

---

Catalogue of molecules with associated cell viability
System: ML-2
protocolNotes: cell viability (% survival relative to DMSO control, bortezomib = 0%); higher = less cytotoxic
details: 100 nM; 72 h
# value in %; strip the unit string

Solved cases (10 shown):
O=C(Cc1cccc(OC(F)(F)F)c1)Nc1ccc(CCCCc2nnc(NC(=O)Cc3ccccn3)s2)nn1 : 94.3
CCCC(CCC)C(=O)O : 93
O=C(CCl)N(CCCNC(=O)C(F)(F)F)c1ccc([N+](=O)[O-])cc1 : 94.5
Cc1nc(-c2ccc(OCC(C)C)c(C#N)c2)sc1C(=O)O : 100
CN(C)CCNC(=O)c1cccn2c(=O)c3cc4ccccc4cc3nc12 : 99.4
CC(C)(CS(=O)(=O)[O-])NC(=O)CC[N+](C)(C)CCO : 89.4
Cn1cc(C[C@@H](N)C(=O)O)c2ccccc21 : 100
O=c1[nH]c(=O)n([C@H]2C[C@H](O)[C@@H](CO)O2)cc1I : 105
CC(C)(F)C[C@H](N[C@@H](c1ccc(-c2ccc(S(C)(=O)=O)cc2)cc1)C(F)(F)F)C(=O)NC1(C#N)CC1 : 96.5
CCCCCCCNC=O [N-Heptyl-Formamide] : 88.8

// query What cell viability value was documented for this molecule, C[C@H]1O[C@H](O[C@H]2[C@H](O)[C@@H](O)[C@@H](O[C@H]3[C@H](O)[C@@H](O)C(O)O[C@@H]3CO)O[C@@H]2CO)[C@H](O)[C@@H](O)[C@@H]1N[C@H]1C=C(CO)[C@@H](O)[C@H](O)[C@H]1O (mixture of isomers) ?
// result 103

// query What cell viability value was documented for this molecule, O=[As]O[As]=O (configuration not stated) [Arsenic trioxide] ?
// result 103

---

Test system: BV-173
details: 72 h
Catalogue of compounds with associated IC50 (cell viability)

Solved cases (2 shown):
Cc1nnc(-c2ccc(N3CCC(Oc4ccccc4C(F)(F)F)CC3)nn2)s1 : > 10 µM
Cn1cc(C[C@@H](N)C(=O)O)c2ccccc21 : > 10 µM

Here is another compound to look at.
// query # query: IC50 (cell viability) | item Cl.OC[C@H]1NC[C@H](O)[C@@H](O)[C@H]1O | system: BV-173
// result > 10 µM

---

Test system: HL-60
protocolNotes: cell viability (% survival relative to DMSO control); higher = less cytotoxic
details: 1 µM; 72 h; co-treatment: AZD3965 100 nM
assayMetric: cell viability (%)
# value in %; strip the unit string

Solved cases (5 shown):
Nc1nc(O)c2c(CCc3ccc(C(=O)N[C@@H](CCC(=O)O)C(=O)O)cc3)c[nH]c2n1 : 41.5
Cn1c2cc(S(C)=O)sc2c2cnn(Cc3cccc(N)c3)c(=O)c21 (stereo unspecified) : 102
CC(=O)N1CCN(c2ccc(OC[C@@H]3CO[C@@](Cn4ccnc4)(c4ccc(Cl)cc4Cl)O3)cc2)CC1 (racemic) : 109
O=c1oc2c(cc1O)oc(=O)c1cc(O)c(O)c(O)c12 : 112
CC(C)(CS(=O)(=O)[O-])NC(=O)CC[N+](C)(C)CCO : 122

Here is another compound to look at.
// query What cell viability value was documented for this compound, N[C@@H](CCC(=O)N[C@@H](CS)C(=O)NCC(=O)O)C(=O)O ?
// result 102

---

Tested on: K-562
protocolNotes: cell viability (% survival relative to DMSO control, bortezomib = 0%); higher = less cytotoxic
details: 100 nM; 72 h
Catalogue of compounds with associated cell viability
# value in %; strip the unit string

Solved cases (3 shown):
c1ccc2nc(-c3nnc4sc(-c5cnccn5)nn34)ccc2c1 : 107
Cc1nc(-c2ccc(OCC(C)C)c(C#N)c2)sc1C(=O)O : 84.2
C=C1C(=O)O[C@H](CCCCCCCC)[C@H]1C(=O)O : 101

// query What cell viability value was documented for this compound, OC[C@H]1N[C@@H](c2c[nH]c3c(O)ncnc23)[C@H](O)[C@@H]1O ?
// result 88.3

// query What cell viability value was documented for this compound, O[C@H]1[C@H](O)[C@@H](O)CN2CC[C@H](O)[C@H]12 ?
// result 96.5

// query What cell viability value was documented for this compound, O=C(c1c2ccccc2cc2ccccc12)N1CCC(N2CCC[C@@H](C(=O)N3CCOCC3)C2)CC1 ?
// result 119

// query What cell viability value was documented for this compound, Cn1cc(C[C@@H](N)C(=O)O)c2ccccc21 ?
// result 79.8

// query What cell viability value was documented for this compound, CCCCCCCNC=O [N-Heptyl-Formamide] ?
// result 99
